Hey, just so you know, these numbers are from ChEMBL document CHEMBL1926664.

Assay: Growth inhibition of human H1299 cells after 72 hrs by XTT assay
Assay type: functional
Details: NCI-H1299, 72 h
Listing of entries alongside the reported GI50.
experimentalReadout: GI50 (µM)

{"columns": ["molecule", "qualifierSymbol", "resultNumber"],
 "data": [
  ["CCc1c2c(nc3ccc(OC(=O)N4CCC(N5CCCCC5)CC4)cc13)-c1cc3c(c(=O)n1C2)COC(=O)[C@]3(O)CC [IRINOTECAN]", ">", 10],
  ["COc1ccc(-c2nc3ccc(F)cc3c3c2-c2ccc(OC)cc2/C3=N\\OCCN2CCCC2)cc1", "=", 3.15],
  ["Oc1ccc2c(c1)/C(=N\\OCCN1CCCC1)c1c-2c(-c2ccc(OCCN3CCCC3)cc2)nc2ccccc12", "=", 0.57],
  ["Oc1ccc(-c2nc3ccc(F)cc3c3c2-c2ccc(O)cc2/C3=N\\OCCN2CCCC2)cc1", "=", 6.48],
  ["COc1ccc(-c2nc3ccccc3c3c2-c2ccc(OC)cc2/C3=N\\OCCN2CCCCC2)cc1", ">", 10],
  ["O/N=C1\\c2cc(O)ccc2-c2c(-c3ccc(O)cc3)nc3ccc(F)cc3c21", ">", 10],
  ["COc1ccc(-c2nc3ccc(F)cc3c3c2-c2ccc(OC)cc2/C3=N\\O)cc1", ">", 10],
  ["CN(C)CCCO/N=C1\\c2cc(OCCCN(C)C)ccc2-c2c(-c3ccc(O)cc3)nc3ccccc3c21", "=", 5.3],
  ["COc1ccc(-c2nc3ccccc3c3c2-c2ccc(OC)cc2/C3=N\\OCCCN(C)C)cc1", "=", 6.61]
]}
